Measured pIC50, listed per entry.
Biological target: Virion infectivity factor (Human immunodeficiency virus type 1 group M subtype B (isolate BH10)) + Virion infectivity factor (Human immunodeficiency virus type 1 group M subtype B (isolate BRU/LAI)) + Virion infectivity factor (Human immunodeficiency virus type 1 group M subtype B (isolate PCV12)) + Virion infectivity factor (Human immunodeficiency virus type 1 group M subtype B (isolate HXB2)) + DNA dC->dU-editing enzyme APOBEC-3G (Homo sapiens) (UniProt P69720+P69721+P69722+P69723+Q9HC16)
Experiment: HIV-1 Vif–A3G interaction blockers – biochemical, TR-FRET, GST-Vif 1-94, biotin-A3G peptide, dose response retest, primary screen (AID 1117319);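 further: Vif residues 1-94 fused to GST binding biotinylated APOBEC3G peptide 110-148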
Conditions: TR-FRET GST-Vif / biotin-A3G peptide binding
Inconclusive results are not listed.
Units for pIC50: none; it is -log10 of a concentration expressed in mol/L.

The value of pIC50 measured for the compound N#C/C(=C/c1ccc(N2CCCCCC2)o1)c1cccc(F)c1 turned out to be 4.61

Attention now shifts to the item below.
COc1ccc(NC(=O)N2c3ccc(OC)cc3C(C)=CC2(C)C)cc1 has a reported pIC50 of 5.49
